Some molecules, each annotated with its measured Activity.
- assay-summary: Detoxification activity against lead-induced toxicity in mouse assessed as reduction lead level in feces at 0.4 mmol/kg, ip qd for 5 days measured 24 hrs last post dose by synchrotron X-ray fluorescence analysis
- Assay type: functional
observable: Activity (µg/g)

> print(dat)
                                    molecule  observable  measurement.units  value
 1  CC(C)[C@H](NC(=O)C1SC(C)(C)SC1C(=O)O)C(=O)O (stereo partly specified)    Activity               µg/g   4.76
 2  CC1(C)SC(C(=O)O)C(C(=O)N[C@@H](CO)C(=O)O)S1 (stereo partly specified)    Activity               µg/g   4.41
 3  CC1(C)SC(C(=O)O)C(C(=O)O)S1 (stereo unspecified)    Activity               µg/g   4.57
 4  CC1(C)SC(C(=O)O)C(C(=O)NCC(=O)O)S1 (stereo unspecified)    Activity               µg/g   4.53
 5  CSCC[C@H](NC(=O)C1SC(C)(C)SC1C(=O)O)C(=O)O (stereo partly specified)    Activity               µg/g   4.35
 6  CC1(C)SC(C(=O)O)C(C(=O)N[C@@H](Cc2c[nH]c3ccccc23)C(=O)O)S1 (stereo partly specified)    Activity               µg/g   4.14
 7  CC1(C)SC(C(=O)O)C(C(=O)N[C@@H](CC(=O)O)C(=O)O)S1 (stereo partly specified)    Activity               µg/g    4.8
 8  CC1(C)SC(C(=O)O)C(C(=O)N[C@@H](Cc2ccccc2)C(=O)O)S1 (stereo partly specified)    Activity               µg/g   4.85
 9  CC(C)C[C@H](NC(=O)C1SC(C)(C)SC1C(=O)O)C(=O)O (stereo partly specified)    Activity               µg/g   3.99
10  CC1(C)SC(C(=O)O)C(C(=O)N[C@@H](CCC(N)=O)C(=O)O)S1 (stereo partly specified)    Activity               µg/g    4.5
11  CC1(C)SC(C(=O)O)C(C(=O)N[C@@H](CCC(=O)O)C(=O)O)S1 (stereo partly specified)    Activity               µg/g   4.49

###

Some compounds, each annotated with its measured Activity.
- Test system: Kidney
- assay-summary: Toxicity in mouse assessed as effect on manganese level in kidney per gram of organ at 0.4 mmol/kg, ip qd for 5 days
- Assay type: organism-based
- conditions: in vivo, 120 h
observable: Activity (µg/g)

> print(dat)
                                    compound  observable  measurement.units  value
 1  CC1(C)SC(C(=O)O)C(C(=O)NCC(=O)O)S1 (stereo not drawn)    Activity               µg/g   1.31
 2  CC1(C)SC(C(=O)O)C(C(=O)N[C@@H](CCC(N)=O)C(=O)O)S1 (stereo partly drawn)    Activity               µg/g   1.33
 3  CC1(C)SC(C(=O)O)C(C(=O)N[C@@H](CO)C(=O)O)S1 (stereo partly drawn)    Activity               µg/g   1.42
 4  CC1(C)SC(C(=O)O)C(C(=O)N[C@@H](Cc2ccccc2)C(=O)O)S1 (stereo partly drawn)    Activity               µg/g   1.43
 5  CC1(C)SC(C(=O)O)C(C(=O)O)S1 (stereo not drawn)    Activity               µg/g    1.3
 6  CC1(C)SC(C(=O)O)C(C(=O)N[C@@H](CC(=O)O)C(=O)O)S1 (stereo partly drawn)    Activity               µg/g   1.32
 7  CC1(C)SC(C(=O)O)C(C(=O)N[C@@H](CCC(=O)O)C(=O)O)S1 (stereo partly drawn)    Activity               µg/g   1.35
 8  CC[C@H](C)[C@H](NC(=O)C1SC(C)(C)SC1C(=O)O)C(=O)O (stereo partly drawn)    Activity               µg/g   1.44
 9  CC1(C)SC(C(=O)O)C(C(=O)N[C@@H](CC(N)=O)C(=O)O)S1 (stereo partly drawn)    Activity               µg/g   1.42
10  CSCC[C@H](NC(=O)C1SC(C)(C)SC1C(=O)O)C(=O)O (stereo partly drawn)    Activity               µg/g   1.37
11  CC1(C)SC(C(=O)O)C(C(=O)N[C@@H](Cc2c[nH]c3ccccc23)C(=O)O)S1 (stereo partly drawn)    Activity               µg/g    1.4
12  CC(C)C[C@H](NC(=O)C1SC(C)(C)SC1C(=O)O)C(=O)O (stereo partly drawn)    Activity               µg/g   1.41
13  CC(C)[C@H](NC(=O)C1SC(C)(C)SC1C(=O)O)C(=O)O (stereo partly drawn)    Activity               µg/g    1.4

###

- Tested on: Caco-2
- assay-summary: Efflux ratio of permeability […] in human Caco2 cells at 4 mM up to 120 mins by HPLC analysis
- Assay type: ADME, cell-based
- conditions: caco-2, 2 h, 4000 µM
observable: Ratio

> print(dat)
                                   compound  value
1  CC[C@H](C)[C@H](NC(=O)C1SC(C)(C)SC1C(=O)O)C(=O)O (stereo partly specified)    2.9
2  CC(C)(S)C(N)C(=O)O (racemic) [DL-PENICILLAMINE]   1.14
3  CC1(C)SC(C(=O)O)C(C(=O)O)S1 (stereo unspecified)   2.91
4  O=C([O-])C(S)C(S)C(=O)[O-].[Na+].[Na+] (stereo unspecified)    1.1
5  CC1(C)SC(C(=O)O)C(C(=O)N[C@@H](CC(N)=O)C(=O)O)S1 (stereo partly specified)   3.23
6  CSCC[C@H](NC(=O)C1SC(C)(C)SC1C(=O)O)C(=O)O (stereo partly specified)   3.11

###

- System: Brain
- assay-summary: Toxicity in mouse assessed as effect on iron level in brain per gram of organ at 0.4 mmol/kg, ip qd for 5 days
- Assay type: organism-based
- conditions: in vivo, 120 h
observable: Activity (µg/g)

> print(dat)
                                   compound  measurement.units  value
1  CSCC[C@H](NC(=O)C1SC(C)(C)SC1C(=O)O)C(=O)O (stereo partly drawn)               µg/g   56.6
2  CC1(C)SC(C(=O)O)C(C(=O)N[C@@H](CCC(N)=O)C(=O)O)S1 (stereo partly drawn)               µg/g  57.66
3  CC1(C)SC(C(=O)O)C(C(=O)O)S1 (stereo not drawn)               µg/g   56.6
4  CC1(C)SC(C(=O)O)C(C(=O)N[C@@H](Cc2ccccc2)C(=O)O)S1 (stereo partly drawn)               µg/g  56.31
5  CC1(C)SC(C(=O)O)C(C(=O)NCC(=O)O)S1 (stereo not drawn)               µg/g  57.03
6  CC1(C)SC(C(=O)O)C(C(=O)N[C@@H](Cc2c[nH]c3ccccc23)C(=O)O)S1 (stereo partly drawn)               µg/g  56.94
7  CC1(C)SC(C(=O)O)C(C(=O)N[C@@H](CC(=O)O)C(=O)O)S1 (stereo partly drawn)               µg/g  56.37
8  CC(C)C[C@H](NC(=O)C1SC(C)(C)SC1C(=O)O)C(=O)O (stereo partly drawn)               µg/g  57.49

###

- assay-summary: Detoxification activity against lead-induced toxicity in mouse assessed as reduction lead level in feces at 0.4 mmol/kg, ip qd for 5 days measured 24 hrs last post dose by synchrotron X-ray fluorescence analysis
- Format: functional
Some molecules, each annotated with its measured Activity.
observable: Activity (µg/g)

> print(dat)
                                   molecule  value
1  CC1(C)SC(C(=O)O)C(C(=O)N[C@@H](CC(N)=O)C(=O)O)S1 (some centres undefined)   4.71
2  O=C([O-])C(S)C(S)C(=O)[O-].[Na+].[Na+] (centres undefined)   4.59
3  CC[C@H](C)[C@H](NC(=O)C1SC(C)(C)SC1C(=O)O)C(=O)O (some centres undefined)    4.1
4              CC(C)(S)C(N)C(=O)O (racemic)   3.26

###

- Test system: Brain
- assay-summary: Toxicity in mouse assessed as effect on calcium level in brain per gram of organ at 0.4 mmol/kg, ip qd for 5 days
- Type: organism-based
- conditions: in vivo, 120 h
observable: Activity (µg/g)

> print(dat)
                                    compound  observable  value
 1  CC1(C)SC(C(=O)O)C(C(=O)N[C@@H](CCC(=O)O)C(=O)O)S1 (stereo partly drawn)    Activity  69.99
 2  CC1(C)SC(C(=O)O)C(C(=O)N[C@@H](CC(N)=O)C(=O)O)S1 (stereo partly drawn)    Activity   71.3
 3  CC1(C)SC(C(=O)O)C(C(=O)N[C@@H](CO)C(=O)O)S1 (stereo partly drawn)    Activity  68.08
 4  CC[C@H](C)[C@H](NC(=O)C1SC(C)(C)SC1C(=O)O)C(=O)O (stereo partly drawn)    Activity     69
 5  CSCC[C@H](NC(=O)C1SC(C)(C)SC1C(=O)O)C(=O)O (stereo partly drawn)    Activity  70.51
 6  CC(C)[C@H](NC(=O)C1SC(C)(C)SC1C(=O)O)C(=O)O (stereo partly drawn)    Activity     72
 7  CC(C)C[C@H](NC(=O)C1SC(C)(C)SC1C(=O)O)C(=O)O (stereo partly drawn)    Activity  69.29
 8  CC1(C)SC(C(=O)O)C(C(=O)N[C@@H](Cc2ccccc2)C(=O)O)S1 (stereo partly drawn)    Activity  69.84
 9  CC1(C)SC(C(=O)O)C(C(=O)N[C@@H](Cc2c[nH]c3ccccc23)C(=O)O)S1 (stereo partly drawn)    Activity  69.35
10  CC1(C)SC(C(=O)O)C(C(=O)N[C@@H](CCC(N)=O)C(=O)O)S1 (stereo partly drawn)    Activity  71.82
11  CC1(C)SC(C(=O)O)C(C(=O)O)S1 (stereo not drawn)    Activity  71.33
12  CC1(C)SC(C(=O)O)C(C(=O)NCC(=O)O)S1 (stereo not drawn)    Activity   71.4
13  CC1(C)SC(C(=O)O)C(C(=O)N[C@@H](CC(=O)O)C(=O)O)S1 (stereo partly drawn)    Activity  68.28
